- measured-on: UniProt:Q9Y5Z0
- Sequence (Q9Y5Z0 whole entry): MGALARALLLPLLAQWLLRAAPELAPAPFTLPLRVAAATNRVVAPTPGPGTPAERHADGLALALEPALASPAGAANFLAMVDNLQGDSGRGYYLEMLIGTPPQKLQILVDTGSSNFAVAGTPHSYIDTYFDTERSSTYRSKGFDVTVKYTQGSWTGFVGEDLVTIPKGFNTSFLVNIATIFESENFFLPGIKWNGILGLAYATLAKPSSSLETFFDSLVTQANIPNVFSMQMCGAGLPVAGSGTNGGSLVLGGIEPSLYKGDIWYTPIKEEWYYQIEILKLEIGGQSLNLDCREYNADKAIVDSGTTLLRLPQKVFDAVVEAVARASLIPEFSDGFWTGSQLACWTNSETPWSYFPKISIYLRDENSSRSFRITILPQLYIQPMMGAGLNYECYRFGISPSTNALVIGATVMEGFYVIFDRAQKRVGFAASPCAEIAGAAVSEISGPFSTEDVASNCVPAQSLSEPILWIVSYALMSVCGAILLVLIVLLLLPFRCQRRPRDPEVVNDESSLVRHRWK
observable: IC50

Ask: GET /values?readout=IC50&item= `COCCCOc1cc(C(=O)N(C[C@@H]2CNC[C@H]2OC(=O)NCc2ccccc2)C(C)C)ccc1OC`
Reply: > 30 µM

###

- measured-on: Alpha-1A adrenergic receptor (Homo sapiens, UniProt P35348)
- Sequence (P35348 whole entry): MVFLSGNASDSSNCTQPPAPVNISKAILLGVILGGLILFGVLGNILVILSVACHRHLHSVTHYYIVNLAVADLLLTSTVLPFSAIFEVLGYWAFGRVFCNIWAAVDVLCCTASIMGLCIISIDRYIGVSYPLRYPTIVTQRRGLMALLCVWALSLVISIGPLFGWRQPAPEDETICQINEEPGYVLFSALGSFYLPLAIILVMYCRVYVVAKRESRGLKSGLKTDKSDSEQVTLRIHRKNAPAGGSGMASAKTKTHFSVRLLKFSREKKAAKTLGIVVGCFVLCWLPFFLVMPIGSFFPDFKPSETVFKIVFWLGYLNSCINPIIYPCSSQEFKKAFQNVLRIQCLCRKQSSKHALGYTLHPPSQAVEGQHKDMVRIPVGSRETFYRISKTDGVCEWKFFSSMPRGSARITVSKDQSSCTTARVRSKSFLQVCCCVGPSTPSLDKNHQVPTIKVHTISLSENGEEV
observable: pIC50
Remember the convention: pIC50 equals -log10 of concentration in molar.

Ask: pIC50 for `COCCCOc1cc(C(=O)N(C[C@@H]2CNC[C@H]2OC(=O)NCc2ccccc2)C(C)C)ccc1OC` ?
Reply: 6.30

###

- measured-on: Alpha-2B adrenergic receptor (Homo sapiens, UniProt P18089)
- Sequence (P18089 whole entry): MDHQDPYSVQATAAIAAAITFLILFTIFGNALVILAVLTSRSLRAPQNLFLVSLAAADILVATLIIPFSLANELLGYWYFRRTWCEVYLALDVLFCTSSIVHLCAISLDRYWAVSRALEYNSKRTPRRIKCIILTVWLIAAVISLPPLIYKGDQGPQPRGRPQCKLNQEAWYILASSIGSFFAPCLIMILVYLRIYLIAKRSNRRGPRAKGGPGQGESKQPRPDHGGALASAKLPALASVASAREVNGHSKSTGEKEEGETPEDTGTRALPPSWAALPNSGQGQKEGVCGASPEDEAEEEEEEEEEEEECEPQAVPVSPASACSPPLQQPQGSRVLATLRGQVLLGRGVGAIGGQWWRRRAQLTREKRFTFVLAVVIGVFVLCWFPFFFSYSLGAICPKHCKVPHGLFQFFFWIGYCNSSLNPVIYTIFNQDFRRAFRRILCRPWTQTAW
observable: pIC50
Note: pIC50 values are expressed as the negative base-10 logarithm of concentration in M.

Ask: Value wanted: pIC50 (Alpha-2B adrenergic receptor (Homo sapiens, UniProt P18089)) of entry `COCCCOc1cc(C(=O)N(C[C@@H]2CNC[C@H]2OC(=O)NCc2ccccc2)C(C)C)ccc1OC`
Reply: 6.00

###

- measured-on: Cathepsin D (Homo sapiens)
- Sequence (P07339 65-162 limits assumed): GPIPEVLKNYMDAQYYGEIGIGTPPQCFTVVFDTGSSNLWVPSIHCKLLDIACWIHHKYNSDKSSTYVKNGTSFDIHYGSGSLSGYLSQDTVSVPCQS
- Sequence (P07339 169-412 limits assumed): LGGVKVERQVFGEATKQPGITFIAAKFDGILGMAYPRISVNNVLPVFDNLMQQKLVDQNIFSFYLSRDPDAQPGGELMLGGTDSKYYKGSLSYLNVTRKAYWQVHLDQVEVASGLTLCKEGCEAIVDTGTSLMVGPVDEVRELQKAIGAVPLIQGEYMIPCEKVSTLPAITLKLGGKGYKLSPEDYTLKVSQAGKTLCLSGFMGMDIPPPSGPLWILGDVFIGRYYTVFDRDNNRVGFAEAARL
observable: IC50

Ask: Entry `COCCCOc1cc(C(=O)N(C[C@@H]2CNC[C@H]2OC(=O)NCc2ccccc2)C(C)C)ccc1OC` : reported IC50 = ?
Reply: > 30 µM

###

The listing below reports pIC50 for compounds tested on Cytochrome P450 3A4 (Homo sapiens, UniProt P08684).
Sequence (P08684 whole entry): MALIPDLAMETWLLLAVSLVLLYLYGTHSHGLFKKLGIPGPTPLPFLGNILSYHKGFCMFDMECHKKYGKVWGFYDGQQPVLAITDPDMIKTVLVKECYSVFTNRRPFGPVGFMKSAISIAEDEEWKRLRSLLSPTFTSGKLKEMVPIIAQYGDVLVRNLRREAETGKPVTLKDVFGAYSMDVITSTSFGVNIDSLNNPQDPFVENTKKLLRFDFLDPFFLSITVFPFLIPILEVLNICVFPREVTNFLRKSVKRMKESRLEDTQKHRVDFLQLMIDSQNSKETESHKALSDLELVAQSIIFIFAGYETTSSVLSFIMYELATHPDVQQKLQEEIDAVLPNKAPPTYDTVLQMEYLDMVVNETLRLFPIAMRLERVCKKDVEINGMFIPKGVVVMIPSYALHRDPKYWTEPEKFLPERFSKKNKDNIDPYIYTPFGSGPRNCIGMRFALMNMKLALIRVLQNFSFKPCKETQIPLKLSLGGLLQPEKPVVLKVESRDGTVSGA
pIC50: −log10 of the molar value.

Here is how some compounds turned out for pIC50.
{"columns": ["compound", "measured-on", "recorded-measurement"],
 "data": [
  ["COCCCOc1cc(C(=O)N(C[C@@H]2CNC[C@H]2OC(=O)NCc2ccccc2)C(C)C)ccc1OC", "Cytochrome P450 3A4 (Homo sapiens, UniProt P08684)", 5.40],
  ["COCCCOc1cc(C(=O)N(C[C@@H]2CNC[C@H]2OCc2cccc(-c3ccccc3)c2)C(C)C)ccc1OC (racemic)", "Cytochrome P450 3A4 (Homo sapiens, UniProt P08684)", "≥ 6.70"],
  ["COCCCOc1cc(C(=O)N(C[C@@H]2CNC[C@H]2OCc2cccc(-n3cccc3)c2)C(C)C)ccc1OC (racemic)", "Cytochrome P450 3A4 (Homo sapiens, UniProt P08684)", "≥ 6.70"]
]}

Query compound follows.
Ask: Given the entry COCCCOc1cc(C(=O)N(C[C@@H]2CNC[C@H]2OCc2cccc(OC)c2)C(C)C)ccc1OC (racemic) , report its measured pIC50.
Reply: ≥ 6.70

###

- measured-on: UniProt:P00797
- method: Inhibition of human recombinant renin by TR-FRET assay
observable: pIC50
As a rule, pIC50 stands for the negative log10 of the concentration, concentration in M.

{"columns": ["compound", "measured-on", "pIC50"],
 "data": [
  ["COCCCOc1cc(C(=O)N(C[C@@H]2CNC[C@H]2OCc2ccccc2)C(C)C)ccc1OC (racemic)", "UniProt:P00797", 6.11],
  ["COCCCOc1cc(C(=O)N(C[C@@H]2CNC[C@H]2OCc2cccc(-c3ccccc3OC)c2)C(C)C)ccc1OC (racemic)", "UniProt:P00797", 7.19],
  ["COCCCOc1cc(C(=O)N(C[C@@H]2CNC[C@H]2OC(=O)N(C)Cc2nc3ccccc3s2)C(C)C)ccc1OC (racemic)", "UniProt:P00797", 7.52],
  ["COCCCOc1cc(C(=O)N(C[C@@H]2CNC[C@H]2OC(=O)NCc2ccccc2)C(C)C)ccc1OC (racemic)", "UniProt:P00797", 7.10],
  ["COCCCOc1cc(C(=O)N(C[C@@H]2CNC[C@H]2Oc2ccc(C(F)(F)F)cc2)C(C)C)ccc1OC (racemic)", "UniProt:P00797", 6.35]
]}

Ask: // query pIC50 value for entry COCCCOc1cc(C(=O)N(C[C@@H]2CNC[C@H]2OC(=O)Nc2cccc(OC)c2)C(C)C)ccc1OC (racemic)
Reply: 6.52

Ask: Fill blank: measured pIC50 of the compound COCCCOc1cc(C(=O)N(C[C@@H]2CNC[C@H]2OC(=O)N(C)Cc2ccccc2)C(C)C)ccc1OC (racemic) is ____.
Reply: 6.46

###

IC50 reference
- measured-on: UniProt:P00797
- method: Inhibition of human recombinant renin in presence of plasma by TR-FRET assay
Number in nM, nothing else.

{"columns": ["compound", "IC50 (nM)"],
 "data": [
  ["COCCCOc1cc(C(=O)N(C[C@@H]2CNC[C@H]2OC(=O)N(C)Cc2cccc3ccccc23)C(C)C)ccc1OC (racemic)", 35]
]}

Ask: Recorded IC50 of COCCCOc1cc(C(=O)N(C[C@@H]2CNC[C@H]2OCc2ccccc2)C(C)C)ccc1OC (racemic) , please.
Reply: 850

Ask: IC50 lookup needed for COCCCOc1cc(C(=O)N(C[C@@H]2CNC[C@H]2OCc2cccc(-c3ccccc3)c2)C(C)C)ccc1OC (racemic) , thanks.
Reply: 1100

Ask: What value of measured IC50 is listed for `COCCCOc1cc(C(=O)N(C[C@@H]2CNC[C@H]2OC(=O)NCc2ccccc2)C(C)C)ccc1OC` ?
Reply: 30

###

Parameter pIC50: see the listing below.
- measured-on: Renin (Homo sapiens)
- Sequence (P00797 whole entry): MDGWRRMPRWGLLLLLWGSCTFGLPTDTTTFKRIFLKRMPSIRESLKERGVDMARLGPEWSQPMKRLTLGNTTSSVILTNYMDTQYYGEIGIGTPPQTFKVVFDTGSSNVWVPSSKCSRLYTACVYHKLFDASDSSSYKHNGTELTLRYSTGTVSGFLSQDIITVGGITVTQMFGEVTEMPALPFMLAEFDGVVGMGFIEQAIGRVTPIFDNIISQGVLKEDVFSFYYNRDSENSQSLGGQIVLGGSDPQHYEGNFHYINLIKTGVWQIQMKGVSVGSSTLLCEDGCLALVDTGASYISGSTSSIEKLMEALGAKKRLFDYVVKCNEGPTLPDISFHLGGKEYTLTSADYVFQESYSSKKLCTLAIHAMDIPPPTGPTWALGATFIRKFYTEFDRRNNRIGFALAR
- method: Inhibition of human recombinant renin by TR-FRET assay
To interpret pIC50, take it as minus log10 of a concentration measured in moles per litre.

Ask: Return reported pIC50; argument: COCCCOc1cc(C(=O)N(C[C@@H]2CNC[C@H]2OC(=O)NCc2ccco2)C(C)C)ccc1OC (racemic)
Reply: 7.05

###

- measured-on: Renin (Homo sapiens, UniProt P00797)
- Sequence (P00797 whole entry): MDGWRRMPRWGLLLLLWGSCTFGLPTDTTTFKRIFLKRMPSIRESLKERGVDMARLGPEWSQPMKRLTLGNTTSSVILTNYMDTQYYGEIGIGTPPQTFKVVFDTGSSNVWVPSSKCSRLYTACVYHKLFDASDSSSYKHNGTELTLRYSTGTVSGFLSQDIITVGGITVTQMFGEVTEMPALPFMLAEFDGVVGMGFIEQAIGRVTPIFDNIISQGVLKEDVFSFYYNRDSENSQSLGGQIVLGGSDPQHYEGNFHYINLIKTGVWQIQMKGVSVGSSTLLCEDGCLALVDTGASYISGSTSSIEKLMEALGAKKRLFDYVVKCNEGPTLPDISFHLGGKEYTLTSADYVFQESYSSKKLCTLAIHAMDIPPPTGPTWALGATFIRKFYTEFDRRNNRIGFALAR
- method: Inhibition of human recombinant renin by TR-FRET assay
IC50 overview
Value expressed in nM; do not type the unit.

Worked set:
{"columns": ["molecule", "measured-on", "IC50 (nM)"],
 "data": [
  ["COCCCOc1cc(C(=O)N(C[C@@H]2CNC[C@H]2OC(=O)NCc2nccs2)C(C)C)ccc1OC (racemic)", "Renin (Homo sapiens, UniProt P00797)", 100],
  ["COCCCOc1cc(C(=O)N(C[C@@H]2CNC[C@H]2OCc2cccc(OC)c2)C(C)C)ccc1OC (racemic)", "Renin (Homo sapiens, UniProt P00797)", 250],
  ["COCCCOc1cc(C(=O)N(C[C@@H]2CNC[C@H]2OCc2cccc(-n3cccc3)c2)C(C)C)ccc1OC (racemic)", "Renin (Homo sapiens, UniProt P00797)", 85]
]}

Ask: Fill in: IC50 of COCCCOc1cc(C(=O)N(C[C@@H]2CNC[C@H]2OC(=O)N(C)Cc2cccc3c2OCO3)C(C)C)ccc1OC (racemic) is ___
Reply: 20

Hello, the source for this data is ChEMBL document CHEMBL3400053, in case you need it.
